B1: Myc-Mal-TIR wild type (TIR domain of human MyD88 adaptor-like protein, residues 79-221, double-tagged with His6 and Myc) [human] / GST-Mal-TIR (TIR domain of human Mal, residues 79-221, GST fusion) [human] (parent)
chain 1: SSRWSKDYDVCVCHSEEDLVAAQDLVSYLEGSTASLRCFLQLRDATPGGAIVSELCQALSSSHCRVLLITPGFLQDPWCKYQMLQALTEAPGAEGCTIPLLSGLSRAAYPPELRFMYYVDGRGPDGGFRQVKEAVMRYLQTLS
chain 2: B1 chain 1

variants of: B1; assay: GST pull-down, quantified Western blot; details: with GST-Mal-TIR (TIR domain of human Mal, residues 79-221, GST fusion) [human]; n = 3 separate experiments; parent: 1; read off a plot
QUANTITY MEASURED: ratio to parent

1 = chain 1 W78A
2 = chain 1 Y81A
3 = chain 1 D9A
INPUT: With regard to ratio to parent, arrange the entries in ascending order, please. Order the labels as requested and give them as your answer.
OUTPUT: 2, 1, 3
